Biological target: cynomolgus complement C3b protein (cynomolgus monkey (Macaca fascicularis))
Assay: cell-based or functional assay

BINDER	MAC Dep (nM), cyno serum, IC50
MOR9675 Fab format (Fab, V domains shown) VH: EVQLVQSGAEVKKPGASVKVSCKASGYTFTGYYINWVRQAPGQGLEWMGIISPNQGTTGYAQKFQGRVTMTRDTSISTAYMELSSLRSEDTAVYYCARGNYDHLDYWGQGTLVTVSS VL: DIQMTQSPSSLSASVGDRVTITCRASQGISNYLNWYQQKPGKAPKLLIYDASTLQSGVPSRFSGSGSGTDFTLTISSLQPEDFATYYCQQDWHTLPVTFGQGTKVEIK	14 nM
MOR9556 Fab format (Fab, V domains shown) VH: EVQLVESGGGLVQPGGSLRLSCAASGFTFSSYWMTWVRQAPGKGLEWVSSIKIKPDGYAASVKGRFTISRDNSKNTLYLQMNSLRAEDTAVYYCARLFYQYFARMDYWGQGTLVTVSS VL: DIQMTQSPSSLSASVGDRVTITCRASQDISNYLNWYQQKPGKAPKLLIYAASNLQSGVPSRFSGSGSGTDFTLTISSLQPEDFATYYCQQYDSYSPTFGQGTKVEIK	18 nM
MOR9674 Fab format (Fab, V domains shown) VH: EVQLVQSGAEVKKPGASVKVSCKASGYTFTSYSMHWVRQAPGQGLEWMGLINPYNGNTHYAQKFQGRVTMTRDTSISTAYMELSSLRSEDTAVYYCARMLRFDVWGQGTLVTVSS VL: ESALTQPASVSGSPGQSITISCTGTSSDGGGYNYVSWYQQHPGKAPKLMIYGVSNRPSGVSNRFSGSKSGNTASLTISGLQAEDEADYYCQTYTRYSDSPVFGGGTKLTVLG	17 nM
MOR9610 Fab format (Fab, V domains shown) VH: EVQLVQSGAEVKKPGSSVKVSCKASGGTFSSYTFSWVRQAPGQGLEWMGNILPIFGDANYAQKFQGRVTITADESTSTAYMELSSLRSEDTAVYYCARNKGAFYYMSTYPSLDVWGQGTLVTVSS VL: DIQMTQSPSSLSASVGDRVTITCRASQNINYYLNWYQQKPGKAPKLLIYDAFSLQSGVPSRFSGSGSGTDFTLTISSLQPEDFATYYCQQSIAVPPFTFGQGTKVEIK	18 nM
